Values were extracted from patent US20200392228A1.

Molecular target: T1, mouse MAdCAM protein (mouse, UniProt Q61826 22-365, limits assumed)
T1 construct: also called recombinant mouse MAdCAM-1; mMAdCAM-1
T1 sequence (looked up): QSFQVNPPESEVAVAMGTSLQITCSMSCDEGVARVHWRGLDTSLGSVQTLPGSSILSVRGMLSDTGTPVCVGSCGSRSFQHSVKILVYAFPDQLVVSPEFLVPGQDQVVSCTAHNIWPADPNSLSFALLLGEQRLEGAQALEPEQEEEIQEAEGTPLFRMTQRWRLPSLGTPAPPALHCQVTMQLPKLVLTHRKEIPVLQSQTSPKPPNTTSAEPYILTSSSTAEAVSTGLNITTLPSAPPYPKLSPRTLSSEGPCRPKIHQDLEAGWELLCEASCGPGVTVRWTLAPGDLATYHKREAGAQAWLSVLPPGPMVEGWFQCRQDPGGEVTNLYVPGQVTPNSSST
Assay: Octet
recorded-endpoint: binding result

binder	binding result
MAdCAM antibody Clone ID 9 of Table 6 (scFv) (scFv) scFv: EVQLLESGGGLVQPGGSLRLSCAASGFTFSDYYMNWVRQAPGKGLEWVSVIGESGGSTYYADSVKGRFTISRDNSKNTLYLQMNSLRAEDTAVYYCAADPVSRWPKHGGGDYWGQGTLVTVSSGGGGSGGGGSGGGGSGGGGSDIQMTQSPSSLSASVGDRVTITCRASQGISSSLAWYQQKPGKAPKLLIYAASTLQSGVPSRFSGSGSGTDFTLTISSLQPEDFATYYCQQSYSTPWTFGQGTKVEIK	binds
MAdCAM antibody Clone ID 5 of Table 6 (scFv) (scFv) scFv: EVQLLESGGGLVQPGGSLRLSCAASGFTFSSYWMHWVRQAPGKGLEWVSSISPGGSNIDYADSVKGRFTISRDNSKNTLYLQMNSLRAEDTAVYYCAREVQLSHYDYWGQGTLVTVSSGGGGSGGGGSGGGGSGGGGSDIQMTQSPSSLSASVGDRVTITCRASQGISNSLAWYQQKPGKAPKLLIYGASSLQSGVPSRFSGSGSGTDFTLTISSLQPEDFATYYCQQANSFPFTFGQGTKVEIK	binds
MAdCAM antibody Clone ID 7 of Table 6 (scFv) (scFv) scFv: QVQLVQSGAEVKKPGASVKVSCKASGYTFTGYHIHWVRQAPGQGLEWMGIINPSGGSTIYAQKFQGRVTMTRDTSTSTVYMELSSLRSEDTAVYYCAKDWSSWYLGPFDYWGQGTLVTVSSGGGGSGGGGSGGGGSGGGGSDIQMTQSPSSLSASVGDRVTITCRASQNISSSLNWYQQKPGKAPKLLIYAASSLQSGVPSRFSGSGSGTDFTLTISSLQPEDFATYYCQQSYTTPYTFGQGTKVEIK	binds
MAdCAM antibody Clone ID 2 of Table 6 (scFv) (scFv) scFv: QVQLVQSGAEVKKPGASVKVSCKASGYPFIGYYLHWVRQAPGQGLEWMGIINPSGGSTSYAQKFQGRVTMTRDTSTSTVYMELSSLRSEDTAVYYCAREGRLSYGMDAWGQGTLVTVSSGGGGSGGGGSGGGGSGGGGSDIQMTQSPSSLSASVGDRVTITCRASQSISSYLAWYQQKPGKAPKLLIYGASTLESGVPSRFSGSGSGTDFTLTISSLQPEDFATYYCQQTWGPPFTFGQGTKLEIK	binds
MAdCAM antibody Clone ID 59 of Table 6 (scFv) (scFv) scFv: EVQLLESGGGLVQPGGSLRLSCAASGFTFSDFWMHWVRQAPGKGLEWISYISGDSGYTNYADSVKGRFTISRDNSKNTLYLQMNSLRAEDTAVYYCARDRPYYYYMDVWGKGTTVTVSSGGGGSGGGGSGGGGSGGGGSDIQMTQSPSSLSASVGDRVTITCRASQSVSRSLAWYQQKPGKAPKLLIYAASSLQSGVPSRFSGSGSGTDFTLTISSLQPEDFATYYCQQYKSYPVTFGQGTKVEIK	binds

Request: GET /values?readout=binding result&item= MAdCAM antibody Clone ID 23 of Table 6 (scFv) (scFv) scFv: EVQLLESGGGLVQPGGSLRLSCAASGFTFSSYAMHWVRQAPGKGLEWVSGISGSGGSAYYADSVKGRFTISRDNSKNTLYLQMNSLRAEDTAVYYCATSQAPVDYYYYGMDVWGQGTTVTVSSGGGGSGGGGSGGGGSGGGGSDIQMTQSPSSLSASVGDRVTITCRASQSISSWLAWYQQKPGKAPKLLIYAASNLQRGVPSRFSGSGSGTDFTLTISSLQPEDFATYYCQQSYSIPITFGQGTKVEIK
Result: no binding

Request: Return reported binding result; argument: MAdCAM antibody Clone ID 4 of Table 6 (scFv) (scFv) scFv: QVQLVQSGAEVKKPGASVKVSCKASGGTFSSYAISWVRQAPGQGLEWMGSINPSGDTTSYAQKFQGRVTMTRDTSTSTVYMELSSLRSEDTAVYYCAKDKAQWLVGYFDYWGQGTLVTVSSGGGGSGGGGSGGGGSGGGGSDIQMTQSPSSLSASVGDRVTITCQASQDISNSLNWYQQKPGKAPKLLIYAASSLQSGVPSRFSGSGSGTDFTLTISSLQPEDFATYYCQQSYSSVITFGQGTKVEIK
Result: binds

Request: Bench note: what binding result did MAdCAM antibody Clone ID 63 of Table 6 (scFv) (scFv) scFv: EVQLLESGGGLVKPGGSLRLSCAASGFTFDDYAMHWVRQAPGKGLEWVASITSSSAFIDYAASVKGRFTISRDDSKNTLYLQMNSLKTEDTAVYYCARERVDWNSYFDLWGRGTLVTVSSGGGGSGGGGSGGGGSGGGGSEIVMTQSPATLSVSPGERATLSCRASQGISNSYLAWYQQKPGQAPRLLIYGASTRATGIPARFSGSGSGTEFTLTISSLQSEDFAVYYCQQYYTYPPTFGPGTKVDIK show?
Result: binds

Request: Value lookup for binding result; key = MAdCAM antibody Clone ID 6 of Table 6 (scFv) (scFv, also called Antibody Clone 6) scFv: EVQLLESGGGLVQPGGSLRLSCAASGFTFNNYAFHWVRQAPGKGLEWVSRINSYGTSTTYADSVKGRFTISRDNSKNTLYLQMNSLRAEDTAVYYCAREGPVAGYWYFDLWGQGTLVTVSSGGGGSGGGGSGGGGSGGGGSDIQMTQSPSSLSASVGDRVTITCRASQIIGTNLAWYQQKPGKAPKLLIYGASSLQSGVPSRFSGSGSGTDFTLTISSLQPEDFATYYCQQSYRLPFTFGQGTKVEIK
Result: no binding

Request: Give the measured binding result of MAdCAM antibody Clone ID 19 of Table 6 (scFv) (scFv) scFv: EVQLLESGGGLVQPGGSLRLSCAASGFTFDDYAMHWVRQAPGKGLEWVSGISWNSGSIGYADSVKGRFTISRDNSKNTLYLQMNSLRAEDTAVYYCAKDIVAAGHYYYGMDVWGQGTTVTVSSGGGGSGGGGSGGGGSGGGGSDIQMTQSPSSLSASVGDRVTITCQASQDISNYLNWYQQKPGKAPKLLIYDASNLETGVPSRFSGSGSGTDFTLTISSLQPEDFATYYCQQSYSTPLTFGGGTKVEIK .
Result: no binding

Request: So what does the record say about binding result for MAdCAM antibody Clone ID 20 of Table 6 (scFv) (scFv) scFv: EVQLLESGGGLVQPGGSLRLSCAASGFTFDDYAMHWVRQAPGKGLEWVSYIDTSSSHLYYADSVKGRFTISRDNSKNTLYLQMNSLRAEDTAVYYCARDEAAAGYYGMDVWGQGTTVTVSSGGGGSGGGGSGGGGSGGGGSDIQMTQSPSSLSASVGDRVTITCQAGQDISNYLNWYQQKPGKAPKLLIYDASNLETGVPSRFSGSGSGTDFTLTISSLQPEDFATYYCQQTYSTPITFGQGTKLEIK ?
Result: no binding
